Tested on: HCT116
Test: AC50 cell viability (CellTiter-Glo); higher = less potent
Conditions: 48 h
Where a name gives a salt, the structure may show the parent alone.
observed_property: AC50 cell viability (µM)
Answer with a number only, understood to be in µM.

Known results for compounds:
Q: Which AC50 cell viability value belongs to C[C@](O)(COc1ccc(C#N)cc1)C(=O)Nc1ccc(C#N)c(C(F)(F)F)c1 [Ostarine] ?
Result: 20.9

Q: Cool, now COC(=O)C[C@](O)(CCCC(C)(C)O)C(=O)O[C@@H]1C(OC)=CC23CCCN2CCc2cc4c(cc2[C@H]13)OCO4 (stereo not given in full) [Omacetaxine mepesuccinate]
Result: 0.0235

Further cases:
Q: Which AC50 cell viability value belongs to CNC(=O)c1cc(Oc2ccc3nc(N[C@@H]4CCCC[C@H]4O)sc3c2)ccn1 [BLZ-945] ?
Result: 20.9

Q: Cool, now Cc1cccc(CN2CCN(C(c3ccccc3)c3ccc(Cl)cc3)CC2)c1 (stereo not given) [Meclizine hydrochloride]
Result: 20.9

Q: Cool, now COC1=CC=CC2=C1C(=NC(=N2)C3=CC=CS3)NN4C(=O)\C=C(C)/C4=O [SPC-839]
Result: 0.525

Q: Cool, now ClC/1=C(NCCN2CCOCC2)/C(=O)C3=C(C=CC=N3)C1=O [DA-3003-1]
Result: 5.9

Q: Cool, now COc1cc([C@@H]2c3cc4c(cc3[C@H](O)[C@H]3COC(=O)[C@@H]23)OCO4)cc(OC)c1OC [Picropodophyllin]
Result: 0.417

----------
Tested on: HCT116
Test: efficacy (fitted maximal change in viability relative to DMSO control); higher = less cytotoxic (negative = loss of viability)
Conditions: 48 h
Where a name gives a salt, the structure may show the parent alone.
Classify as follows. Reported efficacy greater than or equal to -20%: True. Reported efficacy below: False.

Completed entries (count: 10):
Q: Quick check, efficacy >= -20%? C[N]1N=CC=C1C/2=C(\C)N(C(=O)C(=C2)/C(=O)NCC3=NC=C(C=C3)[S+](C)([O-])=O)C4=CC=CC(=C4)C(F)(F)F [AZD9668]
Result: True

Q: Cool, now CCCOc1ccc(C(=O)OCCN(CC)CC)cc1N [Proparacaine]
Result: False

Q: Cool, now Clc1ccc(-c2nc3sccn3c2/C=N/OCc2ccc(Cl)c(Cl)c2)cc1 [CITCO]
Result: True

Q: Cool, now CCC(C)CNCC(=O)N1CCc2sccc2C1c1cccc(C)n1 (stereo not drawn) [RUSKI-201]
Result: True

Q: Cool, now Cc1nc(-c2ccc(OCC(C)C)c(C#N)c2)sc1C(=O)O [Febuxostat]
Result: True

Q: Cool, now CC(C)[C@H]1C(=O)N[C@H](CO)Cc2c[nH]c3cccc(c23)N1C [(-)-Indolactam V]
Result: True

Q: Cool, now CC(C)c1noc(N2CCC(COc3ccc(-c4ccc([S+](C)(=O)[O-])cc4)nc3)CC2)n1
Result: False

Q: Cool, now CC/1=C/C(=O)N(O)/C(=C1)C2CCCCC2 [Ciclopirox]
Result: False

Q: Cool, now O=C(CCCc1ccc2cccnc2n1)NCc1cc(-c2ccc(F)c(C(F)(F)F)c2)no1 [PRP003-062]
Result: False

Q: Cool, now CC(C)n1c(/C=C/[C@H](O)C[C@H](O)CC(=O)O)c(-c2ccc(F)cc2)c2ccccc21 [Fluvastatin]
Result: False

Further cases:
Q: Quick check, efficacy >= -20%? CCc1nc(C(N)=O)c(Nc2ccc(N3CCC(N4CCN(C)CC4)CC3)c(OC)c2)nc1NC1CCOCC1 [Gilteritinib]
Result: False

Q: Cool, now Cc1nn(C)c(COc2ccc(N3CCN([S+](=O)([O-])N(C)C)CC3)cc2)c1-c1cccc2c(CCCOc3cccc4ccccc34)c(C(=O)O)n(CCN3CCOCC3)c12
Result: True

Q: Cool, now CC[C@H](/C=C/[C@@H](C)[C@H]1CC[C@H]2[C@@H]3CC=C4C[C@@H](O)CC[C@]4(C)[C@H]3CC[C@]12C)C(C)C [Stigmasterol]
Result: True

Q: Cool, now O=C(c1ccc(OCCN2CCCCC2)cc1)c1c(-c2ccc(O)cc2)sc2cc(O)ccc12 [Raloxifene hydrochloride]
Result: False

Q: Cool, now CN1C(=O)C(=C/2N(C(=O)N(C3CC3)C(=O)C2=C1/NC4=CC=C(I)C=C4F)C5=CC=CC(=C5)NC(C)=O)\C [Trametinib]
Result: False

Q: Cool, now Cc1nc(NC(=O)N2CCC[C@H]2C(N)=O)sc1-c1csc(C(C)(C)C)n1 [A-66]
Result: False

Q: Cool, now CC[C@H](C)C(=O)O[C@H]1C[C@@H](C)\C=C2\C=C/[C@H](C)[C@H](CC[C@@H]3C[C@@H](O)CC(=O)O3)[C@@H]12 [Lovastatin]
Result: True

Q: Cool, now NC[C@@](O)(c1ccc(Cl)cc1)c1ccc(-c2cn[nH]c2)cc1
Result: False

Q: Cool, now CCOC(=O)C/1=C(C)/NC(=S)NC1C2=CC=CC(=C2)O (stereo not drawn) [Monastrol]
Result: False

Q: Cool, now CC1COC2=C3N1\C=C(C(O)=O)/C(=O)C3=CC(=C2N4CCN(C)CC4)F (stereo not drawn) [Ofloxacin]
Result: True

Q: Cool, now COc1ccccc1OCC(O)CN1CCN(CC(=O)Nc2c(C)cccc2C)CC1 (stereo not drawn) [Ranolazine]
Result: True

Q: Cool, now CC(=O)N1CCN(c2ccc(NC(=O)Cc3cnc(-c4ccnc(F)c4)c(C)c3)nc2)CC1 [GNF-6231]
Result: False

Q: Cool, now C[N]1C=C(C=N1)C2=C3\C=N/NC(=O)C4=C3C(=CC(=C4)NC(=O)[C@H](N)C5CCCCC5)[NH]2
Result: False

----------
Entries and their measured efficacy follow.
Tested on: HCT116
Assay: efficacy (fitted maximal change in viability relative to DMSO control); higher = less cytotoxic (negative = loss of viability)
Conditions: 48 h

Q: Request - read-out efficacy | tested on HCT116 | compound C/C=C/C[C@@H](C)C(=O)[C@H]1C(=O)N[C@@H](C(C)C)C(=O)N(C)CC(=O)N(C)[C@@H](CC(C)C)C(=O)N[C@@H](C(C)C)C(=O)N(C)[C@@H](CC(C)C)C(=O)N[C@@H](C)C(=O)N[C@H](C)C(=O)N(C)[C@@H](CC(C)C)C(=O)N(C)[C@@H](CC(C)C)C(=O)N(C)[C@@H](C(C)C)C(=O)N1C
Result: -53.6%

Q: Cool, now CC/1=C/C[C@]23O[C@@]2(C)CC[C@@H]4[C@H](OC(=O)C4=C)[C@@H]13
Result: -79%

Q: Cool, now CN1CC[C@@H](NC(=O)Nc2ccc(C#N)cc2)C[C@@H]1c1nc2ccccc2[nH]1
Result: -8.71%

----------
Test system: HCT116
Assay: efficacy (fitted maximal change in viability relative to DMSO control); higher = less cytotoxic (negative = loss of viability)
Conditions: 48 h
Entries and their measured efficacy follow.
Answer with a number only, understood to be in %.

Q: Which efficacy value belongs to O=C(O)CCCc1c[nH]c2ccccc12 [3-indolebutyric acid] ?
Result: 15

Q: Cool, now CC(C)(O)CCc1ccc(OCc2cc(-c3cccc(OC(F)F)c3)c3ncccc3c2)cc1
Result: -82

Q: Cool, now O=C(NCCCNC(=O)c1cccnc1O)c1cc(-c2ccccc2)on1 [ML327]
Result: -62.3

Further cases:
Q: Which efficacy value belongs to CCOCOC[C@H](C[C@H](C)C(=O)NO)NC(=O)c1ccc(Oc2ccccc2)cc1 [ONO-4817] ?
Result: -33.1

----------
Test system: HCT116
Assay: AC50 cell viability (CellTiter-Glo); higher = less potent
Conditions: 48 h
Counter-ions that a name gives are not always drawn.
Entries and their measured AC50 cell viability follow.

Known results for compounds:
Q: Request - read-out AC50 cell viability | tested on HCT116 | compound NC(=O)c1ccc2nc(-c3ccc(C4(N)CCC4)cc3)c(-c3ccccc3)n2n1
Result: 20.9 µM

Q: Cool, now N=C(NCCCCCCNC(=N)NC(=N)Nc1ccc(Cl)cc1)NC(=N)Nc1ccc(Cl)cc1
Result: 20.9 µM

Q: Cool, now CCC[C@@H](C=O)NC(=O)[C@H](CC(C)C)NC(=O)[C@H](CC(C)C)NC(=O)OCc1ccccc1
Result: 0.661 µM

Further cases:
Q: Request - read-out AC50 cell viability | tested on HCT116 | compound O=C(Nc1ccc(OC(F)(F)Cl)cc1)c1cnc(N2CC[C@@H](O)C2)c(-c2ccn[nH]2)c1
Result: 20.9 µM

Q: Cool, now CN[C@H]1CN(C[C@@H]1OC)C2=NC3=C(C=C2)C(=O)C(=C\N3C4=NC=CS4)/C(O)=O
Result: 1.91 µM

Q: Cool, now C[C@@H](NCCCc1cccc(C(F)(F)F)c1)c1cccc2ccccc12 [Cinacalcet hydrochloride]
Result: 16.6 µM

----------
Tested on: HCT116
Test: efficacy (fitted maximal change in viability relative to DMSO control); higher = less cytotoxic (negative = loss of viability)
Conditions: 48 h
Where a name gives a salt, the structure may show the parent alone.
Classify as follows. Reported efficacy greater than or equal to -20%: MET. Reported efficacy below: NOT MET.

Q: Quick check, efficacy >= -20%? O=C1CC[C@H](N2Cc3c(OCc4ccc(CN5CCOCC5)cc4)cccc3C2=O)C(=O)N1 [Iberdomide]
Result: MET

Q: Cool, now CN1CCCN(C(=O)c2cccc(-c3ccc(/C=C4/C(=O)Nc5ccc(Cl)cc54)o3)c2)CC1
Result: NOT MET

Q: Cool, now CCn1nc(C2CCN(C(=O)CCO)CC2)nc1-c1cnc(N)c(-c2nnc(C(C)(C)C)o2)n1
Result: MET

Q: Cool, now Cc1cccc(N(C)C(=S)Oc2ccc3ccccc3c2)c1 [Tolnaftate]
Result: NOT MET

Q: Cool, now C[C@@H](Oc1ccc2[nH]nc(/C=C/c3cnn(CCO)c3)c2c1)c1c(Cl)cncc1Cl
Result: NOT MET

Q: Cool, now O=C(O)CC/C=C\CC[C@@H]1[C@@H](N2CCCCC2)[C@@H](O)C[C@@H]1OCc1ccc(-c2ccccc2)cc1 [Vapiprost hydrochloride]
Result: NOT MET

Q: Cool, now C[C@@H](O)[C@@H](C)Oc1nc(Nc2ccc([S+](=N)([O-])C3CC3)cc2)ncc1C(F)(F)F (stereo partly drawn)
Result: NOT MET

Q: Cool, now Cc1ccc(Nc2cc(N[C@@H]3CCCC[C@@H]3N)nnc2C(N)=O)nc1C
Result: NOT MET

Q: Cool, now CC(C)[S+](=O)([O-])c1ccc2nccc(Nc3ccc4scnc4c3)c2c1
Result: NOT MET

Q: Cool, now S=P(N1CC1)(N1CC1)N1CC1
Result: MET

Further cases:
Q: Quick check, efficacy >= -20%? COc1cc2nccc(Oc3ccc(NC(=O)Nc4ccc(F)cc4F)c(F)c3)c2cc1OC
Result: NOT MET

Q: Cool, now COc1cc(/C=C/C(=O)CC(=O)/C=C/c2ccc(O)c(OC)c2)ccc1O
Result: NOT MET

Q: Cool, now CCC(=O)N1CCOc2c(cc(-c3cc(OC)cc(OC)c3)cc2C(=O)N[C@H]2CCCN(C)C2)C1
Result: NOT MET

Q: Cool, now O=C(Nc1ncc(SCCN2CCCC2)s1)[C@]1(c2ccc([S+](=O)([O-])C3CC3)cc2)C[C@H]1C1CCCCC1
Result: NOT MET

Q: Cool, now Cc1ccc([S+](=O)([O-])Nc2nc3ccccc3nc2Nc2ccc3nsnc3c2)cc1
Result: MET

Q: Cool, now CCOC(=O)O[C@@]1(CC[C@H]2[C@@H]3CCC/4=C/C(=O)/C=C\[C@]4(C)[C@H]3[C@@H](O)C[C@]12C)C(=O)OCCl [Loteprednol etabonate]
Result: MET

Q: Cool, now O=C(O)c1ccc(-c2c[nH]c3ncc(-c4ccccc4)cc23)cc1C1CCCC1
Result: NOT MET

Values compiled from the supplement of paper PMC10290057.
